The origin of these recorded values is patent US20260200920A1.

- studySystem: human recombinant kinase full-length AKT1 E17K (Homo sapiens, UniProt P31749, E17K)
- Construct: Purified human recombinant kinase full-length AKT1 E17K was expressed in insect cells
- Sequence (P31749 whole entry E17K): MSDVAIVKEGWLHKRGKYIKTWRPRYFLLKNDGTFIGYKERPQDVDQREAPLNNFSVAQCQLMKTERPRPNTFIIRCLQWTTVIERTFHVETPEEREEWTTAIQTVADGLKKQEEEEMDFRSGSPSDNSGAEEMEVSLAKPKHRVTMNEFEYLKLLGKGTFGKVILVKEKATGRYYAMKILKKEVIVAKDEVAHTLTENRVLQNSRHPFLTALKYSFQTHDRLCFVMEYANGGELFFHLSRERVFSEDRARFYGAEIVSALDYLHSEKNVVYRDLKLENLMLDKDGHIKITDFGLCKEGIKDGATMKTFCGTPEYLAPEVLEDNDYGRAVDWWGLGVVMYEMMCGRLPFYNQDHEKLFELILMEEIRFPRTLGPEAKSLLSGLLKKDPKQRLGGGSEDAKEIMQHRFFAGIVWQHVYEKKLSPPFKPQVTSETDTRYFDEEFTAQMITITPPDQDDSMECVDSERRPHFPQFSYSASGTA
- assayProcedure: AKT1 E17K kinase assay (TR-FRET, Lance)
- assaySetup: 0.6 nM AKT1 E17K, 50 nM Ulight-CREBtide, either 50 μM ATP or 2 mM ATP, 60 min at RT
reportedProperty: IC50

[[record]]
compound = "CN(Cc1ccc(-n2c(-c3cccnc3N)nc3ccc(-c4ccccc4)nc32)cc1)[C@H]1CC[C@H](C(N)=O)CC1"
reported = "≥ 2 µM"

[[record]]
compound = "Nc1ncccc1-c1nc2ccc(-c3ccccc3)nc2n1-c1ccc(CCN2CCC(C(=O)O)C2)cc1 (stereo not shown)"
reported = "< 0.5 µM"

[[record]]
compound = "CC(C)(C(=O)O)C1CCN(Cc2ccc(-n3c(-c4cccnc4N)nc4ccc(-c5ccccc5)nc43)c(F)c2)C1 (stereo not shown)"
reported = "0.5 to 2 µM"


Request: Using the record for Cc1cc(NC(=O)C2CC3(CC(C(=O)O)C3)C2)ccc1-n1c(-c2cccnc2N)nc2ccc(-c3ccccc3)nc21 (stereo not shown) , state its measured IC50.
Result: 0.5 to 2 µM

Request: Using known records, supply IC50 for Nc1ncccc1-c1nc2ccc(-c3ccccc3)nc2n1-c1ccc(NC(=O)C2CCC(C(=O)O)C2)nc1 (stereo not shown)
Result: 0.5 to 2 µM

Request: # return recorded IC50 for input Cc1cc(C2CN(CC34CCC(C(=O)O)(CC3)CC4)C2)ccc1-n1c(-c2cccnc2N)nc2ccc(-c3ccccc3)nc21
Result: 0.5 to 2 µM

* * *

List of pIC50 values.
- studySystem: human recombinant kinase full-length AKT1 E17K (Homo sapiens, UniProt P31749, E17K)
- Construct: Purified human recombinant kinase full-length AKT1 E17K was expressed in insect cells
- assayProcedure: AKT1 E17K kinase assay (TR-FRET, Lance)
- assaySetup: 0.6 nM AKT1 E17K, 50 nM Ulight-CREBtide, either 50 μM ATP or 2 mM ATP, 60 min at RT
pIC50: −log10 of the molar value.

[[record]]
molecule = "Nc1ncccc1-c1nc2ccc(-c3ccccc3)nc2n1-c1ccc(CN(CC(F)(F)F)[C@H]2CC[C@@H](C(=O)O)CC2)cc1 (single isomer, unassigned) [Compound I-189]"
reportedproperty = "pIC50"
reported = "≤ 5.70"

[[record]]
molecule = "CC(C)(C(=O)O)C1CCN(C(=O)c2ccc(-n3c(-c4cccnc4N)nc4ccc(-c5ccccc5)nc43)cc2)C1 (stereo not shown) [Compound I-82]"
reportedproperty = "pIC50"
reported = "≤ 5.70"

[[record]]
molecule = "Nc1ncccc1-c1nc2ccc(C3CCCCC3)nc2n1-c1ccc(NC(=O)[C@H]2CC[C@H](C(=O)O)CC2)nc1 [Compound I-119]"
reportedproperty = "pIC50"
reported = "5.70 to 6.30"

[[record]]
molecule = "Nc1ncccc1-c1nc2ccc(-c3ccc(F)cc3)nc2n1-c1ccc(C2CN(C[C@H]3CC[C@H](C(=O)O)CC3)C2)cc1 [Compound I-66]"
reportedproperty = "pIC50"
reported = "5.70 to 6.30"

[[record]]
molecule = "CC(C(=O)O)C1CCN(c2ccc(-n3c(-c4cccnc4N)nc4ccc(-c5ccccc5)nc43)cn2)C1 (stereo not shown) [Compound I-26]"
reportedproperty = "pIC50"
reported = "≤ 5.70"

[[record]]
molecule = "Nc1ncccc1-c1nc2ccc(-c3ccccc3)nc2n1-c1ccc(N2CC3(CC(C(=O)O)C3)C2)nc1 [Compound I-107]"
reportedproperty = "pIC50"
reported = "≤ 5.70"


// below: pIC50 requested for another molecule
Request: Give the value of pIC50 reported for the following: Nc1ncccc1-c1nc2ccc(-c3ccccc3)nc2n1-c1ccc(C2CN(CC34CCC(C(=O)O)(CC3)CC4)C2)cc1 [Compound I-146]
Result: > 6.30
